Experiment: Displacement of [3H]-YM09151-2 from dopamine D2 receptor (unknown origin) expressed in sheep striatum membranes assessed as low affinity constant after 2 hrs by scintillation counting analysis
Measured Endpoint: pKd
Quick note: pKd means taking -log10 of the concentration in moles per liter.

Please give the measured pKd for this compound: CCCC[C@H](NC(=O)[C@H]1CC[C@@H]2c3[nH]c4ccccc4c3CCN2C1)C(=O)N[C@@H](Cc1ccc(F)c(F)c1)C(=O)N[C@@H](CCCCN)C(N)=O
5.10

###

Test: Displacement of [3H]-SCH23390 from dopamine D1 receptor (unknown origin) expressed in sheep striatum membranes after […] by scintillation counting analysis
I'd appreciate it if you could supply Kd values for the items below.
The number alone won't do; follow it with the unit.

Please give the measured Kd for this compound: CCCC[C@H](NC(=O)[C@H]1CC[C@@H]2c3[nH]c4ccccc4c3CCN2C1)C(=O)N[C@@H](Cc1ccc(O)cc1)C(=O)N[C@@H](CCCCN)C(N)=O
1200 nM

Please give the measured Kd for this compound: CCCC[C@H](NC(=O)[C@H]1CC[C@@H]2c3[nH]c4ccccc4c3CCN2C1)C(=O)N[C@@H](Cc1ccc(F)c(F)c1)C(=O)N[C@@H](CCCCN)C(N)=O
1300 nM
